Recorded values, source ChEMBL document CHEMBL1156154.

# TARGET_DESC: Muscarinic acetylcholine receptor M1 (Homo sapiens)
# ASSAY_NAME: Positive allosteric modulator activity at human muscarinic M1 receptor expressed in CHO cells assessed as effect on acetylcholine-induced intracellular calcium mobilization by FLIPR assay
# Assay type: functional, cell-based
EXPERIMENTAL_READOUT: IP

Problem: Hello, please tell me recorded IP for this one: `O=C(O)c1cn(Cc2ccc(-c3ccccc3)cc2)c2ccncc2c1=O`
Result: > 100 µM

Problem: Consider the compound `CN(C)c1ccc(-c2ccc(Cn3cc(C(=O)O)c(=O)c4sccc43)nc2)cn1` and give its recorded IP.
Result: 0.5 µM

Problem: Give IP for the following compound: `Cc1cn(-c2ccc(Cn3cc(C(=O)O)c(=O)c4ccncc43)cc2)cn1`
Result: 1.03 µM

Problem: Query IP for `O=C(O)c1cn(Cc2ccc(-c3ccccc3)cc2)c2ncncc2c1=O`
Result: 87.2 µM
